Cited source for all entries: patent US20240424111A1

Here the recorded DC50 is given for each entry.
molecular target: PTPN2 (Mus musculus); construct: HiBiT; host or cells: B16F10.4; assay: HiBiT PTPN2 degradation in B16F10.4 cells, 24 hours; type: cell-based
property_name: DC50

C[C@@H]1CN(c2ccc3c(c2)n(C)c(=O)n3C2CCC(=O)NC2=O)CC[C@H]1CC(=O)Nc1ccc2c(F)c(N3CC(=O)NS3(=O)=O)c(O)cc2c1 (stereo partly drawn): 50 to 150 nM
COCCn1c(=O)n(C2CCC(=O)NC2=O)c2ccc(-c3ccc(CC(=O)Nc4ccc5c(F)c(N6CC(=O)NS6(=O)=O)c(O)cc5c4)cc3)cc21 (stereo not drawn): 150 to 500 nM
CCn1c(=O)n(C2CCC(=O)NC2=O)c2ccc(C3CCN([C@@H](CO)C(=O)Nc4ccc5c(F)c(N6CC(=O)NS6(=O)=O)c(O)cc5c4)CC3)cc21 (stereo partly drawn): 50 to 150 nM

====

The reader will find reported DC50 values listed item by item below.
biological target: PTPN2 (Mus musculus, UniProt Q06180); construct: HiBiT; host or cells: B16F10.4; assay: HiBiT PTPN2 degradation in B16F10.4 cells, 24 hours; assay type: cell-based
Sequence (Q06180 whole entry): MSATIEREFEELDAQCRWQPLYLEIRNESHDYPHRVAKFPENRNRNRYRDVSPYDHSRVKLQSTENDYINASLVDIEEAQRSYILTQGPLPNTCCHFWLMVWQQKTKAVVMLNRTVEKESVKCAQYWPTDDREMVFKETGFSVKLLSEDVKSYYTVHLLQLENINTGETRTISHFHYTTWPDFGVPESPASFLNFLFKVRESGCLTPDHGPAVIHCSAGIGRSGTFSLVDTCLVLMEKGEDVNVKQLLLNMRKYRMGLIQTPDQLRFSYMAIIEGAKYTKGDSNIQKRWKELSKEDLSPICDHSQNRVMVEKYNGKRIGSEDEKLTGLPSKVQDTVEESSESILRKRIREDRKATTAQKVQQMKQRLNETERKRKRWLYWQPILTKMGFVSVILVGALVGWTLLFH
property_name: DC50

Cn1c(=O)n(C2CCC(=O)NC2=O)c2ccc(-n3ccc(CC(=O)Nc4ccc5c(F)c(N6CC(=O)NS6(=O)=O)c(O)cc5c4)n3)cc21 (stereo not drawn): ≥ 500 nM
Cn1c(=O)n(C2CCC(=O)NC2=O)c2ccc(-c3ccn(CC(=O)Nc4ccc5c(F)c(N6CC(=O)NS6(=O)=O)c(O)cc5c4)n3)cc21 (stereo not drawn): 150 to 500 nM
Cn1c(=O)n(C2CCC(=O)NC2=O)c2ccc([C@H]3CCCN(CC(=O)Nc4ccc5c(F)c(N6CC(=O)NS6(=O)=O)c(O)cc5c4)C3)cc21 (stereo partly drawn): 150 to 500 nM
CCn1nc(C2CCC(=O)NC2=O)c2ccc(C3CCN(CC(=O)N4CC(Oc5ccc6cc(O)c(N7CC(=O)NS7(=O)=O)c(F)c6c5)C4)CC3(F)F)cc21 (stereo not drawn): 50 to 150 nM
Cn1c(=O)n([C@H]2CCC(=O)NC2=O)c2ccc(-c3ccc(CC(=O)Nc4ccc5c(F)c(N6CC(=O)NS6(=O)=O)c(O)cc5c4)cc3)cc21: < 50 nM
Cn1c(=O)n(C2CCC(=O)NC2=O)c2ccc(C3CC4CCC(C3)N4CC(=O)Nc3ccc4c(F)c(N5CC(=O)NS5(=O)=O)c(O)cc4c3)cc21 (stereo not drawn) [Degrader 51]: 150 to 500 nM

====

Biological target: PTPN2 (Homo sapiens)
Construct: expressed in transfected cells; host or cells: 293T.109 (HiBiT-PTPN2), derived from 293T WT (ATCC)
Sequence (P17706 1-415): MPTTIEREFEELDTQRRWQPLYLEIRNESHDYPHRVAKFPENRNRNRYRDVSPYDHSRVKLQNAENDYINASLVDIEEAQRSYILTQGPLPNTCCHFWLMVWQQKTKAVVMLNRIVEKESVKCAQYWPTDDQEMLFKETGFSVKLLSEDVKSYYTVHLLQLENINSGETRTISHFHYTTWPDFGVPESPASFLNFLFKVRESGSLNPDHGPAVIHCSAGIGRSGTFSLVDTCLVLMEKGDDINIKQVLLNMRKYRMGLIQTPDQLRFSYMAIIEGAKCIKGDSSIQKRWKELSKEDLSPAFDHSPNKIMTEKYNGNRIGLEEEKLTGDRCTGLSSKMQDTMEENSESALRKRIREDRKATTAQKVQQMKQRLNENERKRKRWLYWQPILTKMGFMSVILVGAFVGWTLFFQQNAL
Experiment: HiBiT PTPN2 degradation in 293T.109 (HiBiT-PTPN2) cells, 24 hours
Assay type: cell-based
Conditions: 293T.109 cells
Protocol: Dulbecco's modified Eagle medium (DMEM) without phenol red and fetal bovine serum (FBS) were purchased from Gibco (Grand Island, NY, USA). Nano-Glo® HiBiT Lytic Assay System was purchased from Promega (Medison, WI, USA). 293T. […] PTPN2 degradation was determined based on quantification of luminescent signal using Nano-Glo® HiBiT Lytic Assay kit. […] Luminescence was acquired on EnVision™ Multilabel Reader (PerkinElmer, Santa Clara, CA, USA).
Each record here notes measured DC50.
property_name: DC50

Cn1c(=O)n(C2CCC(=O)NC2=O)c2ccc(C3CCN(CC4CC(C(=O)Nc5ccc6c(F)c(N7CC(=O)NS7(=O)=O)c(O)cc6c5)C4)CC3)cc21 (stereo not drawn): < 50 nM
C[C@@H]1CN(c2ccc3c(c2)n(C)c(=O)n3C2CCC(=O)NC2=O)CCN1CC(=O)Nc1ccc2c(F)c(N3CC(=O)NS3(=O)=O)c(O)cc2c1 (stereo partly drawn): 50 to 150 nM
C[C@H]1CN(c2ccc3c(c2)n(C)c(=O)n3C2CCC(=O)NC2=O)CCN1CC(=O)Nc1ccc2c(F)c(N3CC(=O)NS3(=O)=O)c(O)cc2c1 (stereo partly drawn): 150 to 500 nM
CCn1c(=O)n(C2CCC(=O)NC2=O)c2ccc(-c3ccc(CC(=O)Nc4ccc5c(F)c(N6CC(=O)NS6(=O)=O)c(O)cc5c4)cc3)cc21 (stereo not drawn): 50 to 150 nM
Cc1cc(CC(=O)Nc2ccc3c(F)c(N4CC(=O)NS4(=O)=O)c(O)cc3c2)ccc1-c1ccc2c(c1)n(C)c(=O)n2C1CCC(=O)NC1=O (stereo not drawn): 50 to 150 nM
Cc1nn(C2CCC(=O)NC2=O)c2ccc(-c3ccc(CC(=O)Nc4ccc5c(F)c(N6CC(=O)NS6(=O)=O)c(O)cc5c4)cc3)cc12 (stereo not drawn): 150 to 500 nM

====

molecular target: PTPN2 (Mus musculus); construct: HiBiT; host or cells: B16F10.4; test: HiBiT PTPN2 degradation in B16F10.4 cells, 24 hours; type: cell-based
property_name: DC50

C[C@@H]1CN(CC(=O)Nc2ccc3c(F)c(N4CC(=O)NS4(=O)=O)c(O)cc3c2)CCN1c1ccc2c(c1)n(C)c(=O)n2C1CCC(=O)NC1=O (stereo partly drawn): 50 to 150 nM
Cn1c(=O)n(C2CCC(=O)NC2=O)c2ccc(N3CCN(CNC(=O)Nc4ccc5c(F)c(N6CC(=O)NS6(=O)=O)c(O)cc5c4)CC3)cc21 (stereo not drawn): 50 to 150 nM
Cn1c(=O)n(C2CCC(=O)NC2=O)c2ccc(N3CC4(CCN(CC(=O)Nc5ccc6c(F)c(N7CC(=O)NS7(=O)=O)c(O)cc6c5)CC4)C3)cc21 (stereo not drawn): ≥ 500 nM
Cn1nc(C2CCC(=O)NC2=O)c2ccc(Nc3ccc(CC(=O)Nc4ccc5c(F)c(N6CC(=O)NS6(=O)=O)c(O)cc5c4)cc3)cc21 (stereo not drawn): 50 to 150 nM
Cn1c(=O)n(C2CCC(=O)NC2=O)c2ccc(N3CCc4cc(CC(=O)Nc5ccc6c(F)c(N7CC(=O)NS7(=O)=O)c(O)cc6c5)ccc43)cc21 (stereo not drawn): 50 to 150 nM
Cn1c(=O)n(C2CCC(=O)NC2=O)c2ccc(Oc3ccc(CC(=O)Nc4ccc5c(F)c(N6CC(=O)NS6(=O)=O)c(O)cc5c4)cc3)cc21 (stereo not drawn): 50 to 150 nM
O=C1CCC(N2CCc3cc(C4CCN(CC(=O)N5CCC(c6ccc7cc(O)c(N8CC(=O)NS8(=O)=O)c(F)c7c6)CC5)CC4)ccc32)C(=O)N1 (stereo not drawn): 150 to 500 nM
Cn1c(=O)n(C2CCC(=O)NC2=O)c2ccc(N3CCC(C(C)(C)C(=O)Nc4ccc5c(F)c(N6CC(=O)NS6(=O)=O)c(O)cc5c4)CC3)cc21 (stereo not drawn): 150 to 500 nM
Cc1cc(CC(=O)Nc2ccc3c(F)c(N4CC(=O)NS4(=O)=O)c(O)cc3c2)ccc1N(C)c1ccc2c(c1)n(C)c(=O)n2C1CCC(=O)NC1=O (stereo not drawn): 50 to 150 nM
C[C@H]1CN(CC(=O)Nc2ccc3c(F)c(N4CC(=O)NS4(=O)=O)c(O)cc3c2)CCN1c1cc2c(cc1F)n(C1CCC(=O)NC1=O)c(=O)n2C (stereo partly drawn): ≥ 500 nM
Cn1c(=O)n(C2CCC(=O)NC2=O)c2ccc(C3CN(CC(=O)Nc4ccc5c(F)c(N6CC(=O)NS6(=O)=O)c(O)cc5c4)CCC3F)cc21 (stereo not drawn): 150 to 500 nM
Cn1c(=O)n(C2CCC(=O)NC2=O)c2ccc(N3[C@@H]4CC[C@H]3C[C@@H](CC(=O)Nc3ccc5c(F)c(N6CC(=O)NS6(=O)=O)c(O)cc5c3)C4)cc21 (stereo partly drawn): 150 to 500 nM

====

Quick list: DC50 per entry.
target: PTPN2 (Mus musculus, UniProt Q06180); construct: HiBiT; host or cells: B16F10.4; test: HiBiT PTPN2 degradation in B16F10.4 cells, 24 hours; type: cell-based
property_name: DC50

Cn1c(=O)n(C2CCC(=O)NC2=O)c2ccc(N3CCC4(CC3)CN(CC(=O)Nc3ccc5c(F)c(N6CC(=O)NS6(=O)=O)c(O)cc5c3)C4)cc21 (stereo not drawn) [Degrader 84]: 150 to 500 nM
Cn1c(=O)n(C2CCC(=O)NC2=O)c2ccc(N3CCC(O)(CC(=O)N4CC(Oc5ccc6cc(O)c(N7CC(=O)NS7(=O)=O)c(F)c6c5)C4)CC3)cc21 (stereo not drawn) [Degrader 67]: 150 to 500 nM
Cc1cc(-c2ccc3c(c2)n(C)c(=O)n3C2CCC(=O)NC2=O)ccc1CC(=O)Nc1ccc2c(F)c(N3CC(=O)NS3(=O)=O)c(O)cc2c1 (stereo not drawn) [Degrader 79]: 50 to 150 nM
Cn1c(=O)n(C2CCC(=O)NC2=O)c2ccc(Nc3ccc(CC(=O)Nc4ccc5c(F)c(N6CC(=O)NS6(=O)=O)c(O)cc5c4)cc3F)cc21 (stereo not drawn) [Degrader 71]: 50 to 150 nM
Cn1c(=O)n(C2CCC(=O)NC2=O)c2ccc(N3CCC(CNC(=O)Nc4ccc5c(F)c(N6CC(=O)NS6(=O)=O)c(O)cc5c4)CC3)cc21 (stereo not drawn) [Degrader 89]: 50 to 150 nM
Cn1nc(N2CCC(=O)NC2=O)c2cc(F)c(N3CCC(CC(=O)Nc4ccc5c(F)c(N6CC(=O)NS6(=O)=O)c(O)cc5c4)CC3)cc21 [Degrader 134]: 150 to 500 nM
